// provenance: patent US20240270821A1

This section presents substances with their documented EC50 values.
Target: human GcgR (Homo sapiens, UniProt P47871)
Sequence (P47871 26-477): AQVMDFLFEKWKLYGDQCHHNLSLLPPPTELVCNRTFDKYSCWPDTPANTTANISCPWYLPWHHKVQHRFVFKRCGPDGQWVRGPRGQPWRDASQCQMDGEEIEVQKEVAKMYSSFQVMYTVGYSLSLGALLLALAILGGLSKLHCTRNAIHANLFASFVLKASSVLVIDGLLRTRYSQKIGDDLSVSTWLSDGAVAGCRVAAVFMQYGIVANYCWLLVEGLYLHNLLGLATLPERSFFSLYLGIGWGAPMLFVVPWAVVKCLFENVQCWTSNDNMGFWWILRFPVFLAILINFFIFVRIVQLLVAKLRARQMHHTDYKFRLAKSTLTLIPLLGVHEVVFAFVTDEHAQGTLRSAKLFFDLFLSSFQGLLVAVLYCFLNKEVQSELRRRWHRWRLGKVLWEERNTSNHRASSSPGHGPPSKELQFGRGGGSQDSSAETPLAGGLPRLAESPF
Experiment: Functional cAMP activity in the presence of 1% HSA
Type: cell-based
Conditions: read-out: cAMP Rel EC50, hGcgR
Starred links: 1 amine or outer side, 2 acyl side, 3 side chain; linkers in the order of their positions; H or OH if unused. Non-standard residues stand in square brackets, D forms with d. Groups on a side chain read outwards from the residue. *: point of attachment. C18 diacid = O=C(O)CCCCCCCCCCCCCCCCC(=O)*; γGlu = O=C(O)[C@H](CCC(=O)[*:2])N[*:1]; αMe4Pal = C[C@](N)(Cc1ccncc1)C(=O)O; αMeY = C[C@](N)(Cc1ccc(O)cc1)C(=O)O; αMeF = C[C@](N)(Cc1ccccc1)C(=O)O; 4Pal = N[C@@H](Cc1ccncc1)C(=O)O; αMeL = CC(C)C[C@](C)(N)C(=O)O; αMeS = C[C@](N)(CO)C(=O)O; Orn = NCCC[C@H](N)C(=O)O; AEEA = NCCOCCOCC(=O)O; Aib = CC(C)(N)C(=O)O
Write down the numeric answer in nM and omit the unit.

Ask | # query: EC50 | item H-Y[Aib]QGT[αMeF]TSD[4Pal][αMeS]I[αMeL]LD[Orn]K([AEEA-γGlu-C18 diacid])AQ[αMe4Pal]EFI[dE][αMeY]LIEGGPSSGAPPPSGSE-NH2 [Example 1166] | system: human GcgR (Homo sapiens, UniProt P47871)
Reply | 427

====

Biological target: hGIPR (Homo sapiens, UniProt P48546)
Sequence (P48546 22-466): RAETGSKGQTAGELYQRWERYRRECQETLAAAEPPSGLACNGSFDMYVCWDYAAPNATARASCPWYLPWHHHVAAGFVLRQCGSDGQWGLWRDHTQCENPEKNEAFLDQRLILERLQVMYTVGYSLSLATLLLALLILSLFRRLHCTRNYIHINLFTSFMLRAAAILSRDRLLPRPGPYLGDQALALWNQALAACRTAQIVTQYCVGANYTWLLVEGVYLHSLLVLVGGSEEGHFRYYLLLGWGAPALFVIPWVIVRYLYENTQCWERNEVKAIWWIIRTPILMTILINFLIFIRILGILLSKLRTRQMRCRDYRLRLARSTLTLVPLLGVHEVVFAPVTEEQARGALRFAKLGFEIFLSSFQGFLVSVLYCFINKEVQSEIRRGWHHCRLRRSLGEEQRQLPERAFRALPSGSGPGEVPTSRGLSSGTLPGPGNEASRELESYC
Assay: Functional cAMP activity in the presence of 1% HSA
Format: cell-based
Settings: read-out: cAMP Rel EC50, hGIPR
pEC50: −log10 of the molar value. Starred links: 1 amine or outer side, 2 acyl side, 3 side chain; linkers in the order of their positions; H or OH if unused. Non-standard residues stand in square brackets, D forms with d. Groups on a side chain read outwards from the residue. *: point of attachment. C20 diacid = O=C(O)CCCCCCCCCCCCCCCCCCC(=O)*; C18 diacid = O=C(O)CCCCCCCCCCCCCCCCC(=O)*; αMePhe(2-F) = C[C@](N)(Cc1ccccc1F)C(=O)O; γGlu = O=C(O)[C@H](CCC(=O)[*:2])N[*:1]; αMe4Pal = C[C@](N)(Cc1ccncc1)C(=O)O; αMeY = C[C@](N)(Cc1ccc(O)cc1)C(=O)O; 4Pal = N[C@@H](Cc1ccncc1)C(=O)O; αMeL = CC(C)C[C@](C)(N)C(=O)O; αMeS = C[C@](N)(CO)C(=O)O; Orn = NCCC[C@H](N)C(=O)O; AEEA = NCCOCCOCC(=O)O; Aib = CC(C)(N)C(=O)O
Label 1.0 when pEC50 is at or above 8; anything below gets 0.0.

| Substance | Category label |
| --- | --- |
| H-Y[Aib]QGTFTSDFS[Orn][αMeL]LDKK([AEEA-AEEA-γGlu-C18 diacid])AQ[Aib]AFIEYLLE[Aib]GPSSGEPPPSGS-NH2 [Example 166] | 0.0 |
| H-Y[Aib]QGTFTSD[4Pal]SK[αMeL]LDKK([AEEA-γGlu-C18 diacid])AQ[Aib]AFIEYLIE[Aib]GPSSGAPPPSGS-NH2 [Example 801] | 0.0 |
| H-Y[Aib]QGT[αMePhe(2-F)]TSD[4Pal][αMeS]I[αMeL]LD[Orn][Orn]([AEEA-γGlu-C18 diacid])AQ[αMe4Pal]EFI[dE][αMeY]LIEGGPSSGAPPPSGSE-NH2 [Example 1212] | 1.0 |

Ask | Decide: pEC50 of H-Y[Aib]QGTFTSDFS[Orn][αMeL]LDKK([AEEA-AEEA-γGlu-C20 diacid])AQ[Aib]AFIEYLLE[Aib]GPSSGEPPPGEG-NH2 [Example 69] >= 8?
Reply | 0.0

Ask | Quick check, pEC50 >= 8? H-Y[Aib]QGT[αMePhe(2-F)]TSD[4Pal][αMeS]I[αMeL]LD[Orn]K([AEEA-γGlu-C18 diacid])AQ[αMe4Pal]EFI[dE][αMeY]LIEGGPSSGEPPPSGS-NH2 [Example 710]
Reply | 1.0
